Test system: Saccharomyces cerevisiae;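 further: PSI is a weighted mean of sequencing reads over stability bins, variants kept only with over 10 reads, mCherry proximal and sfGFP distal, peptide attached via GGGS linker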
Assay: protein stability index of tFT-peptide fusion (C-terminal peptide) (PSI (0-1 scale)); higher = more stable (slower turnover)
Conditions: genetic background: wild type; temperature: 30 C
Overview of reported protein stability index across a group of sequences:
API note: the answer field is a bare number with no unit suffix.

These solved cases illustrate the format of a correct answer.
VIVKSRTTLYIS : 0.107
LAGVVWVVWCVG : 0.198
PLRRPSWVVLSS : 0.38
VLWSCCGGVRVR : 0.483
FHICTQLIFITC : 0.127
SPRGVVIAFLVC : 0.124
GFFCFLYFVVMF : 0.187
PPPPPPPSSSSL : 0.696
YCDPSLIWLYLM : 0.18
RRQLVLVLSWVI : 0.322

Identify protein stability index associated with the sequence `LSLLILFVLLSF` 0.385

Identify protein stability index associated with the sequence `LWFFVVVVVRWV` 0.136

Identify protein stability index associated with the sequence `EVFLARKRSMVV` 0.214

Identify protein stability index associated with the sequence `RYKIEKKKLMNN` 0.235

Identify protein stability index associated with the sequence `LVGYSVFVLFFS` 0.226

Identify protein stability index associated with the sequence `LGPLGWLVLLLV` 0.22

Identify protein stability index associated with the sequence `CFFPFLCFVVGA` 0.346

Identify protein stability index associated with the sequence `FSFSAFARFLVI` 0.255
